Below, each entry is listed alongside its reported inhibition.
tested on: Trypanosoma cruzi; conditions: at 1 mM;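 note: measured against recombinant trans-sialidase from Trypanosoma cruzi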
Description: Inhibition of Trypanosoma cruzi recombinant Trans-sialidase at 1 mM
State the answer as a number, implicitly in %.

CC(=O)Nc1ccc(C(=O)O)cc1CCO; 16
NC(N)=Nc1cc(C(=O)O)ccc1NCc1ccccc1; 9
CC(=O)Nc1ccc(C(=O)O)cc1/C=N/O; 24

Consider the additional compound presented here.
Query block: Query (compound): N=C(N)Nc1cc(/C=N/O)cc(C(=O)O)c1 ; field requested: inhibition
Result block: 35
